System: non-NMDA receptors
Test: Potentiation of AMPA- or kainic acid-elicited membrane current in Xenopus oocytes injected with rat hippocampus poly(A)+ RNA (two-electrode voltage clamp)
Settings: xenopus oocytes, 50 µM
Experimental: By use of an improved method of Masu's Xenopus oocyte expression system [Nature 329,836 (1987)] an electrophysiological analysis was conducted. (1) Preparation of poly(A)^+ RNA isolated from a rat hippocampus. A hippocampus region was isolated from a rat and homogenized in the presence of […] and total RNA was extracted from the hippocampus by means of the ultracentrifugating method utilizing cesium chloride. […]
Recorded Potentiation (relative values with a control as 1), AMPA for the following compounds

Record excerpt, results attached:
Compound	Observed Result
CN(C)C(=O)COc1ccc(SCCNS(=O)(=O)c2ccccc2)cc1F [Compound 143]	1.4
NC(=O)Cc1ccc(SCCNS(=O)(=O)c2ccccc2)cc1 [Compound 145]	1.3
COC(=O)COc1c(F)cc(SCCNS(=O)(=O)c2ccc(Cl)cc2)cc1F [Compound 128]	1.5
O=C(O)COc1c(F)cc(SCCNS(=O)(=O)c2ccc(Cl)cc2)cc1F [Compound 68]	1.5
O=C(O)COc1ccc(SCCNS(=O)(=O)c2ccc(Br)cc2)cc1F [Compound 106]	1.4

**Query** Look up and report measured Potentiation (relative values with a control as 1), AMPA for this entry: NC(=O)COc1ccc(SCCNS(=O)(=O)c2ccccc2)cc1F [Compound 142]
**Result** 1.6
